assay-target: CYP2C9 (Homo sapiens)
Construct: purchased Invitrogen Corporation
Sequence (P11712 whole entry): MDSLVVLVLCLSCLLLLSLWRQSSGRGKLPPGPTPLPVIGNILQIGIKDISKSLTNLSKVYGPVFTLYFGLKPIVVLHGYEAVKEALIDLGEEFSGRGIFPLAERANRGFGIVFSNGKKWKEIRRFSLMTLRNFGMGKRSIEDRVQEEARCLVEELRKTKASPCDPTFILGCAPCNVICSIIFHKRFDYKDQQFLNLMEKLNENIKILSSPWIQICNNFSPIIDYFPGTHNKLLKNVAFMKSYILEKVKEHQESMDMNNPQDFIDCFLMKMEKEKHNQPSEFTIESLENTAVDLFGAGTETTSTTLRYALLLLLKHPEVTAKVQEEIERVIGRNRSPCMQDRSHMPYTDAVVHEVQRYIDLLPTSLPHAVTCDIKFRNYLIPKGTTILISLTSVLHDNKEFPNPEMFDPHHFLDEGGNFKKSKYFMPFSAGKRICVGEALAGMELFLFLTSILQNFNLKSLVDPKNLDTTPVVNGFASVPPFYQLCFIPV
assay-procedure: Vivid CYP2C9 red fluorescent assay
Assay type: in vitro ADME
measurement-parameters: human, recombinant (cDNA-expressed) CYP2C9 BACULOSOMES, probe Vivid red substrate 2 µM
value-kind: inhibition at 30 min, 50 µM (%)
The reply should contain only the number, in %.

// worked examples, inhibition at 30 min, 50 µM included
- CC(C)=CCC[C@](C)(O[C@@H]1O[C@H](CO)[C@@H](O)[C@H](O)[C@H]1O)[C@H]1CC[C@]2(C)[C@@H]1[C@H](O)C[C@@H]1[C@@]3(C)CC[C@H](O)C(C)(C)[C@@H]3[C@@H](O[C@@H]3O[C@H](CO)[C@@H](O)[C@H](O)[C@H]3O[C@@H]3O[C@@H](C)[C@H](O)[C@@H](O)[C@H]3O)C[C@]12C [Re]: 38
- CC(C)=CCC[C@](C)(O[C@@H]1O[C@H](CO)[C@@H](O)[C@H](O)[C@H]1O)[C@H]1CC[C@]2(C)[C@@H]1[C@H](O)C[C@@H]1[C@@]3(C)CC[C@H](O)C(C)(C)[C@@H]3[C@@H](O[C@@H]3O[C@H](CO)[C@@H](O)[C@H](O)[C@H]3O)C[C@]12C [Rg1]: 21.7

The molecule CC(C)=CCC[C@](C)(O[C@@H]1O[C@H](CO[C@@H]2OC[C@@H](O)[C@H](O)[C@H]2O)[C@@H](O)[C@H](O)[C@H]1O)[C@H]1CC[C@]2(C)[C@@H]1[C@H](O)C[C@@H]1[C@@]3(C)CC[C@H](O[C@@H]4O[C@H](CO)[C@@H](O)[C@H](O)[C@H]4O[C@@H]4O[C@H](CO)[C@@H](O)[C@H](O)[C@H]4O)C(C)(C)[C@@H]3CC[C@]12C [Rb3] , when measured on CYP2C9 (Homo sapiens), yielded inhibition at 30 min, 50 µM of 17.6

The molecule CC(C)=CCC[C@](C)(O[C@@H]1O[C@H](CO[C@@H]2O[C@H](CO)[C@@H](O)[C@H](O)[C@H]2O)[C@@H](O)[C@H](O)[C@H]1O)[C@H]1CC[C@]2(C)[C@@H]1[C@H](O)C[C@@H]1[C@@]3(C)CC[C@H](O[C@@H]4O[C@H](CO)[C@@H](O)[C@H](O)[C@H]4O[C@@H]4O[C@H](CO)[C@@H](O)[C@H](O)[C@H]4O)C(C)(C)[C@@H]3CC[C@]12C [Rb1] , when measured on CYP2C9 (Homo sapiens), yielded inhibition at 30 min, 50 µM of 25.2

The molecule CC(C)=CCC[C@](C)(O[C@@H]1O[C@H](CO)[C@@H](O)[C@H](O)[C@H]1O)[C@H]1CC[C@]2(C)[C@@H]1[C@H](O)C[C@@H]1[C@@]3(C)CC[C@H](O[C@@H]4O[C@H](CO)[C@@H](O)[C@H](O)[C@H]4O[C@@H]4O[C@H](CO)[C@@H](O)[C@H](O)[C@H]4O)C(C)(C)[C@@H]3CC[C@]12C [Rd] , when measured on CYP2C9 (Homo sapiens), yielded inhibition at 30 min, 50 µM of 34.8

====

Endpoint: IC50. System: CYP2D6 (Homo sapiens). Items follow.
Sequence (P10635 whole entry): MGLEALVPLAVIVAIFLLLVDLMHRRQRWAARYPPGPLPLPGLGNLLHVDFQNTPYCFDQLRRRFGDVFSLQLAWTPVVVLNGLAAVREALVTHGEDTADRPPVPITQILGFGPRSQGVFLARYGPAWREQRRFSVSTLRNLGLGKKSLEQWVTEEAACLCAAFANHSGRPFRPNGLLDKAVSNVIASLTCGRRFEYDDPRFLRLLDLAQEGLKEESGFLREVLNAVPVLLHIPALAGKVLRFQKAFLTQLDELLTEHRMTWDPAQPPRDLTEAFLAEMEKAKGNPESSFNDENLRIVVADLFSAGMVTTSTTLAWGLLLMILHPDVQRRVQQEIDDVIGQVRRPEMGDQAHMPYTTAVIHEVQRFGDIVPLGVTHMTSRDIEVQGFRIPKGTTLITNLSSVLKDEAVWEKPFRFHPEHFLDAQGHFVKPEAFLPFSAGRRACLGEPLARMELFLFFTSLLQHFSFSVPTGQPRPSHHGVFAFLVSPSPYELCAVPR

// worked examples, IC50 included
* CC(C)=CCC[C@](C)(O)[C@H]1CC[C@]2(C)[C@@H]1[C@H](O)C[C@@H]1[C@@]3(C)CC[C@H](O)C(C)(C)[C@@H]3CC[C@]12C [PPD, protopanaxadiol] | > 50 µM
* CC(C)=CCC[C@](C)(O[C@@H]1O[C@H](CO)[C@@H](O)[C@H](O)[C@H]1O)[C@H]1CC[C@]2(C)[C@@H]1[C@H](O)C[C@@H]1[C@@]3(C)CC[C@H](O)C(C)(C)[C@@H]3[C@@H](O[C@@H]3O[C@H](CO)[C@@H](O)[C@H](O)[C@H]3O[C@@H]3O[C@@H](C)[C@H](O)[C@@H](O)[C@H]3O)C[C@]12C [Re] | > 50 µM
* CC(C)=CCC[C@](C)(O[C@@H]1O[C@H](CO)[C@@H](O)[C@H](O)[C@H]1O)[C@H]1CC[C@]2(C)[C@@H]1[C@H](O)C[C@@H]1[C@@]3(C)CC[C@H](O[C@@H]4O[C@H](CO)[C@@H](O)[C@H](O)[C@H]4O[C@@H]4O[C@H](CO)[C@@H](O)[C@H](O)[C@H]4O)C(C)(C)[C@@H]3CC[C@]12C [Rd] | > 50 µM

Let's switch to this molecule now.
The molecule CC(C)(O)CCC[C@@](C)(O)[C@H]1CC[C@]2(C)[C@@H]1[C@H](O)C[C@@H]1[C@@]3(C)CC[C@H](O)C(C)(C)[C@@H]3[C@@H](O)C[C@]12C [20(R)-25-OH-PPT] , when measured on CYP2D6 (Homo sapiens), yielded IC50 of > 50 µM

====

assay-target: CYP1A2 (Homo sapiens)
Sequence (P05177 whole entry): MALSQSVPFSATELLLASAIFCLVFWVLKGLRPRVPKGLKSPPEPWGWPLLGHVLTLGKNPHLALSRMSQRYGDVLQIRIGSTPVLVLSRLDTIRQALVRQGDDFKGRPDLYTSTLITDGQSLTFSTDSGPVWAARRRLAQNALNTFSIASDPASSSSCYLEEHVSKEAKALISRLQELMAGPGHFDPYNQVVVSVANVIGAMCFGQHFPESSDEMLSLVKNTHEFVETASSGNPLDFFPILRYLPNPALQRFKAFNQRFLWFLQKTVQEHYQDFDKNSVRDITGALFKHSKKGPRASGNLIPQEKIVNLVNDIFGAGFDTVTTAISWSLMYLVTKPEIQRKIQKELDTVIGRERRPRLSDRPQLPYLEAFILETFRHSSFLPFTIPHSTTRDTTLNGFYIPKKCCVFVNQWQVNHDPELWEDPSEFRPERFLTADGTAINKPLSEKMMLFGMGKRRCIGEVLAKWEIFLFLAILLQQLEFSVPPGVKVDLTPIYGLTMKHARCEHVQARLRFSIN
assay-procedure: Vivid CYP1A2 blue fluorescent assay
measurement-parameters: human, recombinant (cDNA-expressed) CYP1A2 BACULOSOMES, probe Vivid blue substrate 3 µM
Hi, to clarify the labels: MET covers inhibition at 30 min, 50 µM from 30% upward, NOT MET covers anything below 30%.

Example cases with answers are listed next.
• CC(C)=CCC[C@@](C)(O)[C@H]1CC[C@]2(C)[C@@H]1[C@H](O)C[C@@H]1[C@@]3(C)CC[C@H](O)C(C)(C)[C@@H]3CC[C@]12C [20(R)-PPD] = NOT MET
• COC(C)(C)CCC[C@](C)(O)[C@H]1CC[C@]2(C)[C@@H]1[C@H](O)C[C@@H]1[C@@]3(C)CC[C@H](O)C(C)(C)[C@@H]3CC[C@]12C = NOT MET
• CC(C)=CCC[C@](C)(O)[C@H]1CC[C@]2(C)[C@@H]1[C@H](O)C[C@@H]1[C@@]3(C)CC[C@H](O)C(C)(C)[C@@H]3[C@@H](O)C[C@]12C = NOT MET
• CC(C)=CCC[C@](C)(O[C@@H]1O[C@H](CO[C@@H]2OC[C@@H](O)[C@H](O)[C@H]2O)[C@@H](O)[C@H](O)[C@H]1O)[C@H]1CC[C@]2(C)[C@@H]1[C@H](O)C[C@@H]1[C@@]3(C)CC[C@H](O[C@@H]4O[C@H](CO)[C@@H](O)[C@H](O)[C@H]4O[C@@H]4O[C@H](CO)[C@@H](O)[C@H](O)[C@H]4O)C(C)(C)[C@@H]3CC[C@]12C = MET
• CC(C)=CCC[C@](C)(O[C@@H]1O[C@H](CO)[C@@H](O)[C@H](O)[C@H]1O)[C@H]1CC[C@]2(C)[C@@H]1[C@H](O)C[C@@H]1[C@@]3(C)CC[C@H](O)C(C)(C)[C@@H]3[C@@H](O[C@@H]3O[C@H](CO)[C@@H](O)[C@H](O)[C@H]3O[C@@H]3O[C@@H](C)[C@H](O)[C@@H](O)[C@H]3O)C[C@]12C = NOT MET

query: # bool: inhibition at 30 min, 50 µM of CC(C)=CCC[C@](C)(O[C@@H]1O[C@H](CO)[C@@H](O)[C@H](O)[C@H]1O)[C@H]1CC[C@]2(C)[C@@H]1[C@H](O)C[C@@H]1[C@@]3(C)CC[C@H](O[C@@H]4O[C@H](CO)[C@@H](O)[C@H](O)[C@H]4O[C@@H]4O[C@H](CO)[C@@H](O)[C@H](O)[C@H]4O)C(C)(C)[C@@H]3CC[C@]12C >= 30%
result: MET

query: # bool: inhibition at 30 min, 50 µM of CC(C)(O)CCC[C@@](C)(O)[C@H]1CC[C@]2(C)[C@@H]1[C@H](O)C[C@@H]1[C@@]3(C)CC[C@H](O)C(C)(C)[C@@H]3CC[C@]12C [20(R)-25-OH-PPD, 20(R)-dammarane-3β, 12β, 20, 25-tetrol] >= 30%
result: NOT MET

query: # bool: inhibition at 30 min, 50 µM of CC(C)(O)CCC[C@@](C)(O)[C@H]1CC[C@]2(C)[C@@H]1[C@H](O)C[C@@H]1[C@@]3(C)CC[C@H](O)C(C)(C)[C@@H]3[C@@H](O)C[C@]12C [20(R)-25-OH-PPT] >= 30%
result: NOT MET

====

assay-target: CYP3A4 (Homo sapiens, UniProt P08684)
Sequence (P08684 whole entry): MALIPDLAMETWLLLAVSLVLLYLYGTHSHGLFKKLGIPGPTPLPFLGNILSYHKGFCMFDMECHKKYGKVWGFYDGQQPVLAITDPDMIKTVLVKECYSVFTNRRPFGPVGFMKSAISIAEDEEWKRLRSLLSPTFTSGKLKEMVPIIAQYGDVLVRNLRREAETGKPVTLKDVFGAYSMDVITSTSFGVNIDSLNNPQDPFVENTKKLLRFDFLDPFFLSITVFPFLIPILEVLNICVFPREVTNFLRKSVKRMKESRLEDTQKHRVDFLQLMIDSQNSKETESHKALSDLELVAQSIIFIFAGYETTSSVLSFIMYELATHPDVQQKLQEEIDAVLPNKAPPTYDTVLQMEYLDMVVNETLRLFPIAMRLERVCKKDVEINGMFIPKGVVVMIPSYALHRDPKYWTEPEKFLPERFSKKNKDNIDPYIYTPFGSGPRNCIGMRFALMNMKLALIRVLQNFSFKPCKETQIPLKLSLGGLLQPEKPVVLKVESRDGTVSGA
assay-procedure: Vivid CYP3A4 red fluorescent assay
value-kind: pIC50
Value format note: pIC50 is -log10 of concentration (mol/L); just state the number.

// worked examples, pIC50 included
• CC(C)=CCC[C@@](C)(O)[C@H]1CC[C@]2(C)[C@@H]1[C@H](O)C[C@@H]1[C@@]3(C)CC[C@H](O)C(C)(C)[C@@H]3CC[C@]12C [20(R)-PPD] = 4.23
• CC(C)=CCC[C@](C)(O[C@@H]1O[C@H](CO)[C@@H](O)[C@H](O)[C@H]1O)[C@H]1CC[C@]2(C)[C@@H]1[C@H](O)C[C@@H]1[C@@]3(C)CC[C@H](O)C(C)(C)[C@@H]3[C@@H](O[C@@H]3O[C@H](CO)[C@@H](O)[C@H](O)[C@H]3O[C@@H]3O[C@@H](C)[C@H](O)[C@@H](O)[C@H]3O)C[C@]12C = 4.18
• CC(C)=CCC[C@](C)(O)[C@H]1CC[C@]2(C)[C@@H]1[C@H](O)C[C@@H]1[C@@]3(C)CC[C@H](O[C@@H]4O[C@H](CO)[C@@H](O)[C@H](O)[C@H]4O)C(C)(C)[C@@H]3CC[C@]12C = 5.01
• CC(C)=CCC[C@](C)(O[C@@H]1O[C@H](CO[C@@H]2OC[C@@H](O)[C@H](O)[C@H]2O)[C@@H](O)[C@H](O)[C@H]1O)[C@H]1CC[C@]2(C)[C@@H]1[C@H](O)C[C@@H]1[C@@]3(C)CC[C@H](O[C@@H]4O[C@H](CO)[C@@H](O)[C@H](O)[C@H]4O[C@@H]4O[C@H](CO)[C@@H](O)[C@H](O)[C@H]4O)C(C)(C)[C@@H]3CC[C@]12C = 4.16

Let's switch to this molecule now.
The molecule CC(C)=CCC[C@](C)(O)[C@H]1CC[C@]2(C)[C@@H]1[C@H](O)C[C@@H]1[C@@]3(C)CC[C@H](O[C@@H]4O[C@H](CO)[C@@H](O)[C@H](O)[C@H]4O[C@@H]4O[C@H](CO)[C@@H](O)[C@H](O)[C@H]4O)C(C)(C)[C@@H]3CC[C@]12C , when measured on CYP3A4 (Homo sapiens, UniProt P08684), yielded pIC50 of 4.60
